- experimental_system: human hisTRIM7- (human, UniProt Q9C029 342-511)
- protocol_details: ITC
measure_name: Kd (µM)
Provide only the numeric value, understood in µM.

What value of Kd has been reported for the following binder? DNIKKKLDTYLQ [rbGYG1 322-333 peptide]
21.1
